Assayed target: BCL6-NCOR2(SMRT) corepressor protein-protein interaction (Homo sapiens (Human))
Assay: NanoBRET cell assay
Type: cell-based
Recorded conditions: read-out: NanoBRET cell avg pIC50 (converted)
Value kind: IC50 (nM)
Give bare numbers, in nM.

• Cn1c(=O)c2c(c3cc(Nc4nc(N5C6CCC5COC6)ncc4Cl)ccc31)N[C@@H](C1CC1)CCO2 = 120

List the reported IC50 of each molecule below.
1. O=c1c2c(c3cc(Nc4nc(N5C6CCC5COC6)ncc4Cl)ccc3n1CC1CC(F)(F)C1)N[C@@H](C1CC1)CCO2
2. Cn1c(=O)c2c(c3cc(Nc4nc(N5C6CCC5COC6)ncc4Cl)ccc31)N[C@@H](C1CC1)C(F)(F)CO2 [Example 12v]
3. Cn1c(=O)c2c(c3cc(Nc4nc(N5C6CC7CC5CC(C6)O7)ncc4Cl)ccc31)N[C@@H](C1CC1)CCO2

Reply:
1: 97.7; 2: 8.32; 3: 89.1
